This collection of values is drawn from the supplement of paper PMC8728848.

Target: Neu5Ac(a2-3)Gal6S(b1-4)GlcNAc
Assay: glycan array binding signal (z-score within array); higher = stronger binding
Conditions: glycan notation: IUPAC condensed, linker removed
This excerpt belongs to a sample that is enriched for the strongest signals.
Given measured glycan array binding signal (z-score), output true if it is greater than or equal to -0.2 and false if not.

binder	assignedLabel
Gal 10 (Homo sapiens), Q05315 (protein) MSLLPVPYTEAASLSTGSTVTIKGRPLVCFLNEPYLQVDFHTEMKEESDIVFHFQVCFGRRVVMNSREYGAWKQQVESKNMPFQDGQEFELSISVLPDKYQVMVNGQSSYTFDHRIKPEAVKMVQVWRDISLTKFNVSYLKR	false
CLECb-Precomplexed (Mus musculus), P43025 (protein) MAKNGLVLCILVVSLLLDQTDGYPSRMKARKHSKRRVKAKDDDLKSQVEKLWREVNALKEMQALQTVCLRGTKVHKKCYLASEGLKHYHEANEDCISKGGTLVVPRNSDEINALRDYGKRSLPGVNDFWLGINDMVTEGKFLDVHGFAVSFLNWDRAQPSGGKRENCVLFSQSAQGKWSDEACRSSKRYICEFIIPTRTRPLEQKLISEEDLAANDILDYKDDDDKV	false
HPA (Helix pomatia), Q2F1K8 (protein) MQAFYSGLLLLCVVAFAAAQRVQSGKIDCGNDAGWAKVPSDDPGRDNTRELAKNITFASPYCRPPVVLLSITQLDVEQSQNLRVIARLYSVSPTGFKASCYTWHNTKVYSMSISWISIENY	false
Annexin-A1 (Mus musculus), P10107 (protein) MAMVSEFLKQARFLENQEQEYVQAVKSYKGGPGSAVSPYPSFNVSSDVAALHKAIMVKGVDEATIIDILTKRTNAQRQQIKAAYLQENGKPLDEVLRKALTGHLEEVVLAMLKTPAQFDADELRGAMKGLGTDEDTLIEILTTRSNEQIREINRVYREELKRDLAKDITSDTSGDFRKALLALAKGDRCQDLSVNQDLADTDARALYEAGERRKGTDVNVFTTILTSRSFPHLRRVFQNYGKYSQHDMNKALDLELKGDIEKCLTTIVKCATSTPAFFAEKLYEAMKGAGTRHKALIRIMVSRSEIDMNEIKVFYQKKYGISLCQAILDETKGDYEKILVALCGGN	true
CML1 (Coprinopsis cinerea) (protein) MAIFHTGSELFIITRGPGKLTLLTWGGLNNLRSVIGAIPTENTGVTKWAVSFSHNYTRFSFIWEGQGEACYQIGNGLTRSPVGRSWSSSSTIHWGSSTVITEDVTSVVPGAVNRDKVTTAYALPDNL	true
HFR-1 (Triticum aestivum) (protein) MSPQSFTLETTTTTPAAKGSDPSYFQSAPACHEMIQHKELLLHLYAYQNVQKTPDANQAVIVESKRPECFGILAANDWTVYDGPAHNANLVAHAQGLHLGASMAKENWFICFNMVFVNQRFTGSSFKVMGDFQGTAHNGEWAIVGGTGEFAYAQGVIAFKKTQQSERNARMELHVRAMCLSFLRPLLSLGDGSAVAKIGPWGKMSGELLDIPSTPQRLERITIRHGVVIDSLAFSFIDKAGEPYNVGPWGGRRGDNKDTIELAPSEIVTEVSGTVGIFAEDNVEYNAIASLTITTNHRPYGPFGETQSTPFSVPVQDNNNIVGFFACAGKYVEALGVYVRSPVST	false
AT5G01260(PC)(40) (Arabidopsis thaliana), Q9LFB0 (protein) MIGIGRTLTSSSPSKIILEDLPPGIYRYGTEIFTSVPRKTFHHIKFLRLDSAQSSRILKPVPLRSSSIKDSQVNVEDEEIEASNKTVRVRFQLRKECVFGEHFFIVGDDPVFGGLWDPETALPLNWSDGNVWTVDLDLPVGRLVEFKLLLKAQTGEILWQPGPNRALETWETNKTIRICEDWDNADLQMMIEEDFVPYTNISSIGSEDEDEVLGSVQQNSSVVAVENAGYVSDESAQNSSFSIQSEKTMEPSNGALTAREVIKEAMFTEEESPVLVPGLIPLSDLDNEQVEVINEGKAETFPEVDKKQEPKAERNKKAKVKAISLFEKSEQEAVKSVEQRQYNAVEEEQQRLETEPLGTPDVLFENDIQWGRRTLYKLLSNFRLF	false
CCL2 (Coprinopsis cinerea), B3GA02 (protein) MDSPAVTLSAGNYIIYNRVLSPRGEKLALTYPGRQRTPVTVSPLDGSSEQAWILRSYDSNSNTWTISPVGSPNSQIGWGAGNVPVVLPPNNYVWTLTLTSGGYNIQDGKRTVSWSLNNATAGEEVSIGADATFSGRWVIEKV	true
DC-ASGPR S+GEE (Homo sapiens) (protein) MTRTYENFQYLENKVKVQGFKNGPLPLQSLLQRLRSGPCHLLLSLGLGLLLLVIICVVGFQNSKFQRDLVTLRTDFSNFTSNTVAEIQALTSQGSSLEETIASLKAEVEGFKQERQAVHSEMLLRVQQLVQDLKKLTCQVATINNNGEEASTEGTCCPVNWVEHQDSCYWFSHSGMSWAEAEKYCQLKNAHLVVINSREEQNFVQKYLGSAYTWMGLSDPEGAWKWVDGTDYATGFQNWKPGQPDDWQGHGLGGGEDCAHFHPDGRWNDDVCQRPYHWVCEAGLGQTSQESH	false
